Test: Cytotoxicity against African green monkey Vero cells assessed as reduction in cell viability by MTT assay
Assay type: cell-based
Details: chlorocebus sabaeus
endpoint_name: CC50

{"chem_smiles": "NC(=O)c1ncn([C@@H]2O[C@H](CO)[C@@H](O)[C@H]2O)n1", "obs_value": "297 µM"}
{"chem_smiles": "O=C(N/N=C/c1ccccc1O)c1c[nH]c2ccccc2c1=O", "obs_value": "502 µM"}
{"chem_smiles": "O=C(N/N=C/c1ccccc1O)c1c[nH]c2ccc(Br)cc2c1=O", "obs_value": "443 µM"}
{"chem_smiles": "O=C(N/N=C/c1ccccc1O)c1c[nH]c2ccc(Cl)cc2c1=O", "obs_value": "1110 µM"}
{"chem_smiles": "O=C(N/N=C/c1ccccc1O)c1c[nH]c2ccc(F)cc2c1=O", "obs_value": "669 µM"}

###

Test: Selectivity index, ratio of CC50 for African monkey Vero cells to EC50 for Zika virus infected in African green monkey Vero cells
Assay type: toxicity
Details: read-out: Ratio CC50/EC50
Reported selectivity ratio values are given for each entry in this list.

{"molecule": "NC(=O)c1ncn([C@@H]2O[C@H](CO)[C@@H](O)[C@H]2O)n1 [RIBAVIRIN]", "selectivity ratio": 75.2}
{"molecule": "O=C(N/N=C/c1ccccc1O)c1c[nH]c2ccccc2c1=O", "selectivity ratio": 661}
{"molecule": "O=C(N/N=C/c1ccccc1O)c1c[nH]c2ccc(Br)cc2c1=O", "selectivity ratio": 548}
{"molecule": "O=C(N/N=C/c1ccccc1O)c1c[nH]c2ccc(Cl)cc2c1=O", "selectivity ratio": 1410}
{"molecule": "O=C(N/N=C/c1ccccc1O)c1c[nH]c2ccc(F)cc2c1=O", "selectivity ratio": 893}

###

Assay: Selectivity index, ratio of CC50 for African monkey Vero cells to EC50 for Chikungunya virus infected in African green monkey Vero cells
Assay type: toxicity
Conditions: read-out: Ratio CC50/EC50
Reported selectivity ratio values are given for each entry in this list.

{"chem_smiles": "O=C(N/N=C/c1ccccc1O)c1c[nH]c2ccc(F)cc2c1=O", "selectivity ratio": 632}
{"chem_smiles": "O=C(N/N=C/c1ccccc1O)c1c[nH]c2ccccc2c1=O", "selectivity ratio": 176}
{"chem_smiles": "O=C(N/N=C/c1ccccc1O)c1c[nH]c2ccc(Cl)cc2c1=O", "selectivity ratio": 402}
{"chem_smiles": "NC(=O)c1ncn([C@@H]2O[C@H](CO)[C@@H](O)[C@H]2O)n1", "selectivity ratio": 122}
{"chem_smiles": "O=C(N/N=C/c1ccccc1O)c1c[nH]c2ccc(Br)cc2c1=O", "selectivity ratio": 164}
